system: COLO 205; assay: NCI tumour cell line growth inhibition, 48 h
The source made the active and inactive calls. Rule as the data show it: active = GI50 up to about 1.1 µM and inactive = higher.
Response enum: active, inactive

Here's what some known entries look like.
CC1OC(OC2C(O)COC(OC3C(C)OC(OC4C(OC(=O)[C@]56CCC(C)(C)C[C@@H]5C5=CCC7[C@@]8(C)C[C@H](O)[C@H](OC9OC(CO)C(O)C(O)C9O)[C@@](C)(CO)[C@@H]8CC[C@@]7(C)[C@]5(C)CC6)OCC(O)C4O)C(O)C3OC3OCC(O)C(O)C3O)C2O)C(O)C(O)C1O (some centres undefined) : inactive
O=C(CCN1CCC(CCO)CC1)Nc1ccc2c(c1)C(=O)c1ccc(NC(=O)CCN3CCC(CCO)CC3)cc1C2=O : inactive
C#CCn1c(=O)ccn(/C(=C\C(=O)OCC)C(=O)OCC)c1=O : active
O=C1OC(C2(O)OC(=O)c3ccccc32)c2ccccc21 (centres undefined) : inactive

# ---- query compound ----
Query string: Look up the recorded call for `CN(C)/C=N\c1nncc2[nH]nnc12` in this test.
Result string: inactive

* * *

tested on: HCT-116; assay: NCI tumour cell line growth inhibition, 48 h
Activity calls are given as the source filed them. No stated cut-off is given here; in the data, active = GI50 up to about 1.1 µM and inactive = higher.
Response enum: class 1 = active, class 0 = inactive

Here's what some known entries look like.
Nc1nc(N)c(-c2ccccc2)c(C(=O)Nc2ccccc2)n1 : class 0
O=C(O)C1CC2(C1)CC(C(=O)O)C2 (configuration not stated) : class 0
CCN(CC)CCNc1ccc2ncn3c4cc(OC)c(OC)c(O)c4c(=O)c1c23 : class 1

Query string: Look up the recorded call for C=C(C)[C@H]1[C@@H]2OC(=O)[C@H]1[C@]1(O)C[C@H]3OC34C(=O)O[C@H]2[C@@]41C.CC(C)(O)[C@H]1[C@@H]2OC(=O)[C@H]1[C@]1(O)C[C@H]3OC34C(=O)O[C@H]2[C@@]41C (some centres not stated) in this test.
Result string: class 0

Query string: Look up the recorded call for COc1ccc(-c2c(C(C)=O)c(-c3ccccc3)n(C3OC(CO)C(O)C(O)C3O)c(=S)c2C#N)cc1 (configuration not stated) in this test.
Result string: class 0

Query string: Look up the recorded call for `CCOC(=O)c1cc(-c2ccc(OC)c(OC)c2)c[nH]1` in this test.
Result string: class 0

Query string: Look up the recorded call for `CCCCCC(=O)Nc1nc(O)c2[nH]cnc2n1` in this test.
Result string: class 0

Query string: Look up the recorded call for `COC(=O)/C=C/c1cc(O)c2c(c1)[C@H](C(=O)OC)[C@@H](c1ccc(O)c(O)c1)O2` in this test.
Result string: class 1

* * *

test system: SN12C; assay: NCI tumour cell line growth inhibition, 48 h
The source made the active and inactive calls. Cut-off read from the data, not from the text of the source: active = GI50 up to about 1.1 µM and inactive = higher.
The following molecules are listed with their measured GI50 values.

CCn1c2ccccc2c2cc(NC(=O)c3c(C)nc(O)nc3NCCNCCO)ccc21 : > 100 µM (inactive)

Query string: So what does the record say about GI50 for `COc1ccc(OC)c(NC(=O)CCC/C(CC(=O)c2ccc(O)c(OC)c2)=N\NC(=O)C[N+](C)(C)C)c1` ?
Result string: > 100 µM (inactive)

Query string: So what does the record say about GI50 for `COc1ccc2[nH]c3cc4c(=O)c5cc(OC)ccc5[nH]c4cc3c(=O)c2c1` ?
Result string: > 100 µM (inactive)

Query string: So what does the record say about GI50 for `CN(C)CCNC(=O)c1cc(Cl)cc2ccc(-c3ccccc3)nc12` ?
Result string: 3.02 µM (inactive)

Query string: So what does the record say about GI50 for `Nc1nc(O)c2nc3c(nc2n1)C(=O)N(c1ccc(C(=O)O)cc1)C3` ?
Result string: > 100 µM (inactive)

Query string: So what does the record say about GI50 for `NC1=C(C(=O)O)C(=O)C(Nc2c(O)cccc2C(=O)O)=CC1=O` ?
Result string: > 100 µM (inactive)

Query string: So what does the record say about GI50 for `CN1c2ccccc2C(=O)NC12CCN(CCCC(=O)c1ccc(F)cc1)CC2` ?
Result string: > 100 µM (inactive)

Query string: So what does the record say about GI50 for `Cn1c(NC(=O)NC23CC4CC(CC(C4)C2)C3)nc2ccccc21` ?
Result string: 68.5 µM (inactive)

Query string: So what does the record say about GI50 for `C/C(CCn1[nH]c(=O)ccc1=O)=N\N=C(N)N` ?
Result string: > 100 µM (inactive)

Query string: So what does the record say about GI50 for CC1(c2ccccc2)CC12C(=O)NC(=O)NC2=O (stereo not given) ?
Result string: > 100 µM (inactive)

* * *

system: UO-31; test: NCI tumour cell line growth inhibition, 48 h
The source made the active and inactive calls. No stated cut-off is given here; in the data, active = GI50 up to about 1.1 µM and inactive = higher.
Response enum: active, inactive

Here's what some known entries look like.
OC(COc1ccc(Cl)cc1Cl)CN1CCCC1 (stereo not drawn) : inactive
COc1cc2c(c(OC)c1O)-c1ccc(SC)c(=O)cc1C(NC(C)=O)CC2 (stereo not drawn) : inactive
CCCCC1Cc2cc(O)ccc2-c2n1c1cc(O)ccc1[n+]2C.CCCCC1Cc2cc(O)ccc2-c2n1c1ccc(O)cc1[n+]2C (stereo not drawn) : inactive
O=c1cc(-c2cc(O)c(O)c(-c3c(O)cc4oc(-c5ccc(O)c(O)c5)cc(=O)c4c3O)c2)oc2cc(O)cc(O)c12 : inactive
CCOC(=O)/C(C#N)=C/c1ccc2c(c1)CC1(C2)Cc2cc(CC)c(C(C)O)cc2C1 (stereo not drawn) : inactive

Query string: Look up the recorded call for COc1cccc(C2C(C(=O)O)=C(CO)Oc3cc4c(cc32)OCO4)c1OC (stereo not drawn) in this test.
Result string: inactive

Query string: Look up the recorded call for `CNc1ncnc2c1cnn2CCCCO` in this test.
Result string: inactive

Query string: Look up the recorded call for `CC(C)c1c(P(=O)(c2ccccc2)c2ccccc2)n(C)c2ccccc12` in this test.
Result string: inactive

Query string: Look up the recorded call for C=C=C(C(=O)OC)[S+]([O-])c1ccc([N+](=O)[O-])cc1[N+](=O)[O-] (stereo not drawn) in this test.
Result string: inactive

Query string: Look up the recorded call for `COc1ccc2c3c1O[C@]1(C)C34CCN(C)C(C2)C42C=C[C@@]1(OC)c1c(O)ccc(O)c12` in this test.
Result string: inactive

Query string: Look up the recorded call for C=CCC(O[Si](C)(C)C(C)(C)C)c1cc(O[Si](C)(C)C(C)(C)C)ccc1OC (stereo not drawn) in this test.
Result string: inactive

Query string: Look up the recorded call for `CC(C)NC(=O)CN1CCN(C2=C(Cl)C(=O)c3c(O)ccc(O)c3C2=O)CC1` in this test.
Result string: active

Query string: Look up the recorded call for `CC(C)[Si](OC1=C(C(=O)N(C)c2ccccc2Cl)CCCCC1)(C(C)C)C(C)C` in this test.
Result string: inactive

Query string: Look up the recorded call for `OCc1ccc2c(c1)CC1(C2)Cc2cc3c(cc2C1)CCC3` in this test.
Result string: inactive

Query string: Look up the recorded call for COc1ccc(Cc2c(-c3ccc(C)cc3)n[nH]c(=O)c2C2C(=O)N(c3ccccc3)N=C2c2ccccc2)cc1 (stereo not drawn) in this test.
Result string: inactive

Query string: Look up the recorded call for OCC(O)CNc1ccnc2cc(Cl)ccc12 (stereo not drawn) in this test.
Result string: inactive

Query string: Look up the recorded call for C=C1C2CCC3C4(C)CCCC(C)(C(=O)O)C4CCC3(C2)C1OC(=O)/C(C)=C/C (stereo not drawn) in this test.
Result string: inactive

Query string: Look up the recorded call for C=C(C)[C@H]1[C@@H]2OC(=O)[C@H]1[C@]1(O)C[C@H]3OC34C(=O)O[C@H]2[C@@]41C.CC(C)(O)[C@H]1[C@@H]2OC(=O)[C@H]1[C@]1(O)C[C@H]3OC34C(=O)O[C@H]2[C@@]41C (stereo partly drawn) in this test.
Result string: inactive

* * *

system: SF-539; assay: NCI tumour cell line growth inhibition, 48 h
Calls of active or inactive are those of the source. No stated cut-off is given here; in the data, active = GI50 up to about 1.1 µM and inactive = higher.
Response enum: yes (1) (active), no (0) (inactive)

Here's what some known entries look like.
C=C1C(=O)O[C@H]2[C@H]1[C@@H](OC(=O)C=C(C)C)CC1=C[C@@H](C[C@@]3(C)O[C@@H]23)OC1=O : no (0)
Cc1cccc(C(O)c2ccncc2)c1O (configuration not stated) : no (0)
O=c1[nH]nc(-c2ccccc2)c2[nH]c3c4ccccc4ccc3c12 : yes (1)
CO[C@H]1C[C@@H]2CC[C@@H](C)[C@@](O)(O2)C(=O)C(=O)N2CCCC[C@H]2C(=O)O[C@H]([C@H](C)C[C@@H]2CC[C@@H](OC(=O)C(C)(CO)CO)[C@H](OC)C2)CC(=O)[C@H](C)/C=C(\C)[C@@H](O)[C@@H](OC)C(=O)[C@H](C)C[C@H](C)/C=C/C=C/C=C/1C [TEMSIROLIMUS] : yes (1)
O=C(OCc1ccccc1)C(Cc1ccccc1)N(Cc1ccccc1)Cc1ccccc1 (configuration not stated) : no (0)
COc1ccc(/C=C/C(=O)c2sc(-n3nc(-c4ccccc4)cc3-c3ccccc3)nc2C)cc1 : no (0)

# ---- query molecule ----
Query string: Look up the recorded call for `CN(O)C(=O)Cc1ccc(OCc2cccc(Cl)c2)cc1` in this test.
Result string: no (0)

Numbers sourced from ChEMBL document CHEMBL1201862.
